target: 14-3-3γ (Homo sapiens); construct: made in house; host or cells: E. coli NiCo21 (DE3); test: Fluorescence anisotropy (FA) binary binding study: 14-3-3 titrated to fluorescein-labelled peptide; settings: Table S3; ΔG of peptide minus ΔG of previous (one amino acid longer) peptide, FA; mean of n = 3
Sequence (P61981 whole entry): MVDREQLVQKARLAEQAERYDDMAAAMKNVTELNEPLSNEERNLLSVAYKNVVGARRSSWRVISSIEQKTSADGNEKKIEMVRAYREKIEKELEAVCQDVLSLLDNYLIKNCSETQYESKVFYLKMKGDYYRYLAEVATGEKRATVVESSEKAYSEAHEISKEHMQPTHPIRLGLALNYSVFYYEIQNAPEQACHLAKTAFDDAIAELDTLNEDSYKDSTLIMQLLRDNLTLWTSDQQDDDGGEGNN
Where a SMILES comes first, the peptide text is derived from it. [ ]: non-standard residue; d: D form. The star is where a group is joined. ξ: configuration not given here. FITC = O=C1OC2(c3ccc(O)cc3Oc3cc(O)ccc32)c2ccc(NC(=S)*)cc21; Phe(4-NO2) = N[C@@H](Cc1ccc([N+](=O)[O-])cc1)C(=O)O; ξAla(4-thiazolyl) = NC(Cc1cscn1)C(=O)O; pS = N[C@@H](COP(=O)(O)O)C(=O)O; β3hS = N[C@@H](CO)CC(=O)O; Nva = CCC[C@H](N)C(=O)O; AEA = NCCOCC(=O)O
endpoint-name: ΔΔG (to previous)

Specify measured ΔΔG (to previous) for CCC[C@H](NC(=O)[C@@H](CCCCN)NC(=O)COCCNC(=S)Nc1ccc2c(c1)C(=O)OC21c2ccc(O)cc2Oc2cc(O)ccc21)C(=O)N[C@@H](Cc1ccc([N+](=O)[O-])cc1)C(=O)NC(Cc1cscn1)C(=O)N[C@@H](COP(=O)(O)O)C(=O)N[C@@H](Cc1ccc([N+](=O)[O-])cc1)C(=O)N[C@@H](CO)CC(N)=O (stereo partly drawn) [2g] ({FITC-AEA}-[dK][Nva][Phe(4-NO2)][ξAla(4-thiazolyl)][pS][Phe(4-NO2)][β3hS]-NH2) .
0,36 kcal/mol
